target: Prothrombin (Bos taurus) (UniProt P00735); assay: bovine thrombin inhibition counter-screen, confirmation, counter-screen for CSN deneddylation inhibitor project, biochemical, fluorescence polarization, single concentration (AID 720656); settings: bovine thrombin cleavage of Ub4-pepOG, at 16.6 µM, stronger effect = higher value
Sequence (P00735 whole entry, looked up): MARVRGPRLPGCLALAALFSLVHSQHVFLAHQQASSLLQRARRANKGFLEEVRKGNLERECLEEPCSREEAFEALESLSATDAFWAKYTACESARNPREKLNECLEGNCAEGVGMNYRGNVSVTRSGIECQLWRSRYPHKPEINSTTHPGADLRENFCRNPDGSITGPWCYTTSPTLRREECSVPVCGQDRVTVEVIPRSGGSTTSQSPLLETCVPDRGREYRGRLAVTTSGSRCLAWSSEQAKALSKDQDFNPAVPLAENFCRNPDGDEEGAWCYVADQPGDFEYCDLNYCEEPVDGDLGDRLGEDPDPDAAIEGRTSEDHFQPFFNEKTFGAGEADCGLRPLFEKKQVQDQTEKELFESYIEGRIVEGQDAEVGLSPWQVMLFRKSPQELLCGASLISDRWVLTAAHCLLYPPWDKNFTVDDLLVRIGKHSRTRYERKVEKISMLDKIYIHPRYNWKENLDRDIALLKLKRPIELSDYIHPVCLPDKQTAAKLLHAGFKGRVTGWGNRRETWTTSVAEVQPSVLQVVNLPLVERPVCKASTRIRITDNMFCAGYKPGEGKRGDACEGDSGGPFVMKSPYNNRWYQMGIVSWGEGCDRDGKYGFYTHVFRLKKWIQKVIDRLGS
The other results are listed elsewhere or left out.
Measured metric: inhibition (%)
Respond numerically; units are % and should not be typed.

Ask | Need inhibition, item CCN1/C(=C\c2ccc3ccccc3[n+]2CC)Sc2cc(C)ccc21
Reply | 43.3

Ask | Another compound to check: C=CCC1=C/C(=C\c2c(N)n3nc(CC(=O)N4CCOCC4)sc3nc2=O)C=C(OC)C1=O
Reply | 72.6

Ask | Another compound to check: CC[n+]1cc(C)ccc1/C=C/c1ccc(N(C)C)cc1
Reply | 63.1

Ask | Another compound to check: COc1ccc2[nH]c3c(C)c4cc[n+](C)cc4c(C)c3c2c1
Reply | 12.2

Ask | Another compound to check: CC(C)(C)C1C/C(=C/c2ccco2)C(=O)/C(=C/c2ccco2)C1 (stereo not given)
Reply | 10.1

Ask | Another compound to check: Cn1ccc(=Nc2ccc(NC(=O)c3ccc(N=c4ccn(C)c5ccc([N+](=O)[O-])cc45)cc3)cc2)cc1
Reply | -10.3

Ask | Another compound to check: CS(=O)(=O)c1ccc2c(c1)SC1=NC(=O)/C(=C/c3ccco3)C(=N)N12
Reply | 41.6

Ask | Another compound to check: O=C(CSc1nc2ccccc2c(=O)[nH]1)Nc1nc(-c2ccc(Br)cc2)cs1
Reply | -37.2

Ask | Another compound to check: O=C(O)C(c1ccccc1)N1C(=O)/C(=C\c2ccc(-c3cccc(Cl)c3)o2)SC1=S (stereo not given)
Reply | 51.9

Ask | Another compound to check: Cc1ccc(N=C2NC(=O)/C(=C/C=C/c3ccco3)S2)cc1C
Reply | 7.38

###

molecular target: Tumor necrosis factor receptor superfamily member 10B (Homo sapiens) (UniProt O14763); experiment: caspase-8 TRAIL sensitization, hit retest, confirmation, cell-based, NB7+caspase-8, with/without TRAIL, luminescence panel (AID 651596); settings: NB7 neuroblastoma + caspase-8, TRAIL sensitization, luminescence viability, with TRAIL, mean of runs, at 10 µM, stronger effect = higher value
Sequence (O14763 whole entry, looked up): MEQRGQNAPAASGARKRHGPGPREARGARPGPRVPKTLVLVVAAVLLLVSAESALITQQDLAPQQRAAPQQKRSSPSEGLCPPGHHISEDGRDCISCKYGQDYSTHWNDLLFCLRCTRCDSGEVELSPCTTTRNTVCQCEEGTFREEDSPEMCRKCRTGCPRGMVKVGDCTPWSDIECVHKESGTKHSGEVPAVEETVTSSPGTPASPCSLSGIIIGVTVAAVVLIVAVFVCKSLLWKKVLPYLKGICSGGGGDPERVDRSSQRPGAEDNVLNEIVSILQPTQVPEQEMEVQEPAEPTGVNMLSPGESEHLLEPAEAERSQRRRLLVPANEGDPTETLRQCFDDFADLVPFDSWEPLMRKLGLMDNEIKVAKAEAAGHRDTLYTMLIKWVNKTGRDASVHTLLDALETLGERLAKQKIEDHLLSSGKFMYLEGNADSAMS
Exercise: for every item that follows, state its recorded activity.
Respond numerically; units are % and should not be typed.

Ask | Need activity, item CCc1ccc2nc(N(CCCN(C)C)C(=O)c3ccc(S(=O)(=O)N4CCc5ccccc5C4)cc3)sc2c1
Reply | 68.4

Ask | Another molecule to check: O=C(CSc1nnc(NC(=O)c2ccccc2)s1)NCc1ccco1
Reply | 64.5

Ask | Another molecule to check: O=C(NCCc1cccc(Cl)c1)c1ccc2c(c1)OCO2
Reply | 47.7

Ask | Another molecule to check: Cc1ccc(C(=O)Nc2ccc3nccnc3c2)cc1
Reply | 77.5

Ask | Another molecule to check: Cc1cccc(N2CCN(C(=S)Nc3ccc4nc(N5CCN(C)CC5)cc(C)c4c3)CC2)c1C
Reply | 98

Ask | Another molecule to check: Cn1c(N)c(C(=O)COC(=O)c2cc(S(=O)(=O)N3CCOCC3)ccc2F)c(=O)n(C)c1=O
Reply | 90.6

Ask | Another molecule to check: CN(C(=O)c1ccccc1)c1nc2ccccc2s1
Reply | 84.3

Ask | Another molecule to check: CCOc1ccc(-c2ccc(SCC)nn2)cc1
Reply | 75.4

Ask | Another molecule to check: Cc1ccc(Nc2nc(N)c3ccccc3n2)cc1Cl
Reply | 75.7

Ask | Another molecule to check: O=C(c1ccccc1)n1c(=S)nc2ccccn21
Reply | 86.2

Ask | Another molecule to check: CCc1nn2cc(-c3ccccc3)nc2s1
Reply | 79.7
